Data provenance is ChEMBL document CHEMBL1155090.

# Test system: HeLa
# Assay Procedure: Ratio of GI50 for methyl methane sulphonate to drug in human HeLa B cells
# Format: functional

Compound: O=C(c1cccc(Cc2n[nH]c(=O)c3ccccc23)c1)N1CCN(C(=O)C2CCCC2)CC1
PF50: 4.8
//
Compound: NC(=O)c1ccccc1OCc1cccc(C(=O)N2CCNCC2)c1
PF50: 1.3
//
Compound: O=C(c1cccc(Cc2n[nH]c(=O)c3ccccc23)c1)N1CCNCC1
PF50: 2.7
//
Compound: CC(Oc1ccccc1)C(=O)N1CCN(C(=O)c2cccc(Cc3n[nH]c(=O)c4ccccc34)c2)CC1 (configuration not stated)
PF50: 29.7
//
Compound: NC(=O)c1ccccc1OCc1ccc(F)c(C(=O)N2CCN(C(=O)C3CCCC3)CC2)c1
PF50: 1.96
//
Compound: NC(=O)c1cc(F)c(F)cc1OCc1ccc(F)c(C(=O)N2CCNCC2)c1
PF50: 1.08
//
Compound: NC(=O)c1ccccc1OCCc1cccc(C(=O)N2CCNCC2)c1
PF50: 1.06
//
Compound: CC(Oc1ccccc1)C(=O)N1CCN(C(=O)c2cc(COc3ccc(F)cc3C(N)=O)ccc2F)CC1 (configuration not stated)
PF50: 1.12
//
Compound: NC(=O)c1cc(F)ccc1OCc1ccc(F)c(C(=O)N2CCNCC2)c1
PF50: 1.6
//
Compound: NC(=O)c1ccc(F)cc1OCc1ccc(F)c(C(=O)N2CCNCC2)c1
PF50: 1.2
//
Compound: NC(=O)c1cc(F)cc(F)c1OCc1ccc(F)c(C(=O)N2CCNCC2)c1
PF50: 0.9
//
Compound: NC(=O)c1ccccc1OCc1ccc(F)c(C(=O)N2CCNCC2)c1
PF50: 1.4
//
Compound: NC(=O)c1cc(F)ccc1OCc1ccc(F)c(C(=O)N2CCN(C(=O)C3CCCC3)CC2)c1
PF50: 1.5
//
Compound: CC(Oc1ccccc1)C(=O)N1CCN(C(=O)c2cccc(COc3ccccc3C(N)=O)c2)CC1 (configuration not stated)
PF50: 2
//
Compound: CC(Oc1ccccc1)C(=O)N1CCN(C(=O)c2cc(COc3ccccc3C(N)=O)ccc2F)CC1 (configuration not stated)
PF50: 3.7
//
Compound: NC(=O)c1ccccc1OCc1cccc(C(=O)N2CCN(C(=O)C3CCCC3)CC2)c1
PF50: 1.1
//
Compound: CC(Oc1ccccc1)C(=O)N1CCN(C(=O)c2cc(CCOc3ccccc3C(N)=O)ccc2F)CC1 (configuration not stated)
PF50: 1.5
